The origin of these recorded values is patent US4963580A.

# Tested on: production of leukotriene B4 (LTB4) in isolated human polymorphonuclear leukocytes (PMN)
# test-description: inhibition of LTB4 production in isolated human polymorphonuclear leukocytes (Human PMN)
# Format: cell-based
# condition-label: Leukocyte, 5 min, LTB4 by RIA, A23187 10 μM, 37° C., read-out: Polymorphonuclear Leucocyte (PMN) Activity, Human PMN IC50
Reported pIC50 is given for each of the following compounds.
Remember the convention: pIC50 equals -log10 of concentration in molar.

C=CCc1cc2c(cc1O)CCS2	6.50

### Prompt If you can, please state the reported pIC50 value of `C=CCc1c(O)ccc2c1CCS2` .
### Response 5.65

### Prompt If you can, please state the reported pIC50 value of `CC(C)(C)c1cc2c(cc1O)CCS2` .
### Response 6.85

### Prompt If you can, please state the reported pIC50 value of `CCCc1cc2c(cc1O)CCS2` .
### Response 6.49
